- Tested on: DU-145 prostate
- experimental details: NCI-60 one-dose screen, 48 h (100 = growth as untreated, 0 = no growth, -100 = all killed)
- measurement parameters: 10 µM unless noted
Compounds without any hit were thinned out: in the full panel of roughly 83,000, 20% have a hit.
measurement label: growth (%)

COc1cc(C2CC(=O)Nc3nc(N)[se]c32)c(OC)c2c1OCO2 (stereo unspecified) :: 103
ClCCN(CCCl)c1ccc(/C=C\c2ccnc3ccccc23)cc1 :: 90.6
CCOc1cc(C=C(C#N)C#N)cc(Br)c1O :: 103
C[C@]12CC[C@H](OC3OC(O)C(O)C(O)C3O)C=C1CCC1C2CC[C@]2(C)[C@@H](c3ccc(=O)oc3)CC[C@]12O (stereo partly specified) :: -100
COc1cc(C2=NN(c3ccccc3)C(c3sc(N(CCCl)CCCl)nc3Cl)C2)cc(OC)c1OC (stereo unspecified) :: 102
CO[C@@H]([CH2][Hg][S]C#N)[C@@H]([CH2][Hg][S]C#N)OC :: 99.2
CCC[CH2][Sn]([CH2]CCC)([CH2]CCC)[O]C(=O)CC :: -97.7
n1nc(-c2nonc2-c2nn[nH]n2)n[nH]1 :: 103
O=C(O)C1[O][Sb][O]C1C(=O)O (stereo unspecified) :: 91.4
COc1ccc(OC)c(/C=C(/C)[N+](=O)[O-])c1 :: 6.46
C1CNC2CCCC2C1 (stereo unspecified) :: 107

* * *

- Test system: SW-620 colon
- experimental details: NCI-60 one-dose screen, 48 h (100 = growth as untreated, 0 = no growth, -100 = all killed)
- measurement parameters: 10 µM unless noted
This is part of a sample that, as a whole, favours compounds with a hit. Of some 83,000 tested, about 20% had one in any assay.
Listed below: growth values for each entry.
measurement label: growth (%)

C=CC(O)CN1CC1CC (configuration not stated) :: 92
O=CN1N=C(c2ccc3c(c2)OCO3)CC1c1sc(N(CCCl)CCCl)nc1Cl (configuration not stated) :: 92.9
CNC(=O)O/N=C(/C)c1ccc(Cl)cc1 :: 117
C1CNC2CCCC2C1 (configuration not stated) :: 103
CC(=O)O[C@H]1CC[C@H]2[C@@H]3CC[C@H]4CC=C(C)C[C@]4(C)[C@H]3CC[C@]12C :: 109
Oc1ccc(Br)cc1CN1CCN(Cc2ccc(Cl)cc2)CC1 :: 73.1
CCCCCN(CCCCC)CC(O)c1ccc(C)c(Cl)c1 (configuration not stated) :: 103
CNC(=O)Oc1cccc(OC)c1 :: 111
COc1ccc(C(c2ccc(OC)cc2)C(Cl)(Cl)Cl)cc1 :: 89.4
COc1cc(C2CC(=O)Nc3nc(N)[se]c32)c(OC)c2c1OCO2 (configuration not stated) :: 110
CC1(CF)NC(=O)NC1=O (configuration not stated) :: 106
CNC(C)Cc1ccccc1 (configuration not stated) (tested in a mixture with another compound) :: 102

* * *

Listed below: growth values for each entry.
- Test system: ACHN renal
- experimental details: NCI-60 one-dose screen, 48 h (100 = growth as untreated, 0 = no growth, -100 = all killed)
- measurement parameters: 10 µM unless noted
This is part of a sample that, as a whole, favours compounds with a hit. Of some 83,000 tested, about 20% had one in any assay.
measurement label: growth (%)

C[C@]12CC[C@H]3[C@@H](C[C@@H]4N=C(c5ccc(O)cc5)S[C@@]45C[C@H](O)CC[C@]35C)[C@@H]1CC[C@@H]2O :: 46
COc1cc(C2=NN(c3ccccc3)C(c3sc(N(CCCl)CCCl)nc3Cl)C2)cc(OC)c1OC (stereo unspecified) :: 88.8
CC(/C=N/N=C(N)N)=N\N=C(N)N :: 80.9
CC1(C)N=C(N)N=C(N)N1c1cccc(C(=O)Nc2cccc(S(=O)(=O)F)c2)c1 :: -26
C[CH2][Pb]([CH2]C)([CH2]C)[O]C(=O)c1ccc(N)cc1 :: 70.7
CC1([N+](=O)[O-])COP(=O)(Nc2ccc(F)cc2)OC1 (stereo unspecified) :: 98.8
CCOC(=O)/C(C#N)=C/c1ccc(N(CCCl)CCCl)cc1 :: 72.8
Oc1ccc(Br)cc1CN1CCN(Cc2ccc(Cl)cc2)CC1 :: 83.3
NC(Cc1ccc2c(c1)OCO2)c1ccc2c(c1)OCO2 (stereo unspecified) :: 108
CC(C)C1c2ccc(O)cc2Oc2nc(N)c(C#N)c(N)c21 (stereo unspecified) :: 92.5
OC1CCCCC1N1CCC(c2ccccc2)CC1 (stereo unspecified) :: 109
CC1(C)N=C(N)N=C(N)N1c1ccc(CNC(=O)Nc2ccc(S(=O)(=O)F)c(Cl)c2)c(Cl)c1 :: 52.9
COc1ccc(CN2CCN(Cc3ccccc3)CC2)c(O)c1 :: 87.5
CC[C@@]1(C2O[C@@H](C3O[C@@](O)(CC)[C@H](C)C[C@@H]3C)C[C@@H]2C)CC[C@H]([C@]2(C)CCC3(C[C@H](O)[C@@H](C)[C@@H]([C@H](C)[C@@H](OC)[C@H](C)C(=O)O)O3)O2)O1 (stereo partly specified) :: 32
O=S(=O)(O)c1ccc(-c2ccc([As](=O)(O)O)cc2)cc1 :: 105
O=CC(Br)C(Br)c1ccccc1 (stereo unspecified) :: 86.2
CCCCCCCC(=O)OCC/C=C/C1OC1C1OC(=O)/C=C\C=C\c2nc(oc2C)/C=C(/C)CCC2OC2C1OC(=O)NC(C)=O (stereo unspecified) :: -16.8
N#CC1=C(N)Oc2cc3c(cc2C1c1cccs1)OCO3 (stereo unspecified) :: 57.4
O=C1c2ccccc2C(=O)N1[N+](=O)[O-] :: 111
Cc1cc(NC(=O)CCc2ccc(N3C(N)=NC(N)=NC3(C)C)cc2)ccc1S(=O)(=O)F :: 70.9
C/C(=C\C(=O)O[C@H]1[C@@H]2[C@H](C)CC[C@H]2[C@]2(C)O[C@@]1(C1CCCCC1)C[C@H]2OC(=O)CO)c1ccccc1 :: -16.5
COP(=S)(OC)Oc1ccc(SC)c(C)c1 :: 101
C/C(=C\c1cc(C(F)(F)F)n(-c2ccc(N)cc2)n1)[C@@H]1C[C@@H]2O[C@]2(C)CCC[C@H](C)[C@H](O)[C@@H](C)C(=O)C(C)(C)[C@@H](O)CC(=O)O1 :: 31.9
O=[N+]([O-])c1cc([N+](=O)[O-])c(Cl)c(Cl)c1Cl :: -87.1
COc1ccccc1N1CCN(CCc2c[nH]c3cc4c(cc23)OCO4)CC1 :: 77.7
CC(=O)Nc1ccc(Cc2ccc(NC(C)=O)cc2)cc1 :: 101
CCOC(=O)c1cnc(SCc2ccc(Cl)c(Cl)c2)nc1N1CC1 :: 44.1
COc1ccc(/C=C\c2cc(OC)c(OC)c(OC)c2)cc1N/C=C\C(=O)c1c[nH]c2ccccc12 :: 15
N#[N+]c1nc2nc(N)[nH]c(=O)c2[nH]1 :: 99.6
CC1(C)N=C(N)N=C(N)N1c1ccc(OCCCCNC(=O)c2ccc(S(=O)(=O)F)cc2)c(Cl)c1 :: 96.9
CNC(=O)O/N=C(/C)c1ccc(Cl)cc1 :: 129
C/C(=N/OC(=O)N(C)C)c1ccc(Cl)cc1Cl :: 98.7
CC1(C)N=C(N)N=C(N)N1c1ccc(OCCCCOc2ccc(S(=O)(=O)F)cc2)c(Cl)c1 :: 25.2
Cc1ccc(C[As+](c2ccccc2)(c2ccccc2)c2ccccc2)cc1 :: 49
O=CN1N=C(c2ccc3c(c2)OCO3)CC1c1sc(N(CCCl)CCCl)nc1Cl (stereo unspecified) :: 93.4
Nc1c(Br)cc([N+](=O)[O-])cc1[N+](=O)[O-] :: 125
c1ccc([As]=[As]c2ccccc2)cc1 (stereo unspecified) :: -99.1
COC(C)(C)CCC[C@H](C)C/C=C/C(C)=C/C(=O)OC(C)C :: 109
[N-]=[N+]=NC(C(=O)O)c1ccccc1 (stereo unspecified) :: 100
N#CC(C#N)=Cc1ccc2ccccc2c1 :: 107
CCOP(=O)(OCC)Oc1ccc(Sc2ccc(OP(=O)(OCC)OCC)cc2)cc1 :: 115

Cited source for all entries: PubChem BioAssay (NCI)
